So I've got a bunch of compounds here, and I need their TGI values.
- System: A549 NSCLC
- Procedure text: NCI tumour cell line growth inhibition, 48 h

Worked examples, 8 compounds total:
[Q] Look up and report measured TGI for this entry: COc1ccc(C2C=C(c3ccc(Cl)cc3)N=C3SC=C(C)N32)c(Br)c1 (centres undefined)
[A] 24.7 µM

[Q] Look up and report measured TGI for this entry: COC(=O)[C@@H]1CC(C(CN)c2cn(C(=O)OC(C)(C)C)c3ccccc23)C(=O)N1C(=O)OC(C)(C)C (some centres undefined)
[A] > 100 µM

[Q] Please give the documented TGI of `S=C(N1CCN(c2cccc(Cl)c2)CC1)N1CCN(c2cccc(Cl)c2)CC1`
[A] > 100 µM

[Q] Specify measured TGI for Cc1ccc(NC(=O)/C(=N/N(C)C)C(C2OC(=O)c3ccccc32)[N+](=O)[O-])cc1 (centres undefined) .
[A] > 100 µM

[Q] For the compound `O=c1cc(-c2ccccc2)oc2cc(OC/C(=N/O)c3ccc(F)cc3)ccc12` , give its reported TGI.
[A] > 50 µM

[Q] Provide only the value of recorded TGI for `Cc1cc(Nc2cc(N3CCN(C)CC3)nc(Sc3ccc(NC(=O)C4CC4)cc3)n2)n[nH]1`
[A] > 10 µM

[Q] Recall and state the measured TGI for `CCOC(=O)c1ccc2c(c1)[n+](=O)c(C(C)=O)c(C(F)(F)F)n2[O-]` .
[A] 4.39 µM

[Q] Consider the compound `O=C(CCc1nnc2s/c(=C\c3ccccc3Cl)c(=O)n12)Nc1cc(Cl)ccc1Cl` . State its measured TGI.
[A] > 100 µM

Please look at the following compound next.
[Q] Identify measured TGI corresponding to O=C1C2C3C=C4c5ccccc5N(c5ccccc5)C4(C2C(=O)N1c1ccc(Br)cc1)[C@H]1C(=O)N(c2ccc(Br)cc2)C(=O)[C@@H]31 (some centres undefined)
[A] > 100 µM
